Could you please report measured sensor-assay potency score (higher = more potent) for the items listed next?
biological target: GRK1; assay: pooled miR-30 sensor sort-seq; sequence = guide strand; conditions: shRNA; also: reference of the scale not given here
Answer with a number only.

Entry TTGTTCTCCACCTTCTCTCCAC ; sensor-assay potency score (higher = more potent) = -0.0458

Entry TTAAACTTCGCCACTATCCCCT ; sensor-assay potency score (higher = more potent) = 0.34

Entry TTGTCCAGCAGCACGTTCTCGG ; sensor-assay potency score (higher = more potent) = -0.903

Entry TTGTTCAGCTTCTTGCAGGCAT ; sensor-assay potency score (higher = more potent) = 0.349

Entry TTTGCGTAGACAGTTTTGGAGT ; sensor-assay potency score (higher = more potent) = -0.657

Entry TTAAGGTCCTTGAAGAGGGGGT ; sensor-assay potency score (higher = more potent) = 0.091

Entry TAGACAGTTTTGGAGTCTGGGA ; sensor-assay potency score (higher = more potent) = -1.3

Entry TTGTCGCAGGTCTCATCTCTGA ; sensor-assay potency score (higher = more potent) = -1.13

----------
biological target: ADRB1; experiment: pooled miR-30 sensor sort-seq; sequence = guide strand; conditions: shRNA
Could you please report measured sensor-assay potency score (higher = more potent) for the items listed next?
Answer with a number only.

Entry ATGAGCAGCACGATGAGCGCCA ; sensor-assay potency score (higher = more potent) = -0.267

Entry TGTCCACTGCTGAGACAGCGGC ; sensor-assay potency score (higher = more potent) = -1.28

Entry TCCACTGCTGAGACAGCGGCTC ; sensor-assay potency score (higher = more potent) = -1.08

Entry GACATCGTCGTCGTCGTCGTCC ; sensor-assay potency score (higher = more potent) = -1.45

Entry ACTGAGGTCCACAGCTCGCAGA ; sensor-assay potency score (higher = more potent) = -1.49

----------
biological target: RAB3D; test: pooled miR-30 sensor sort-seq; sequence = guide strand; settings: shRNA
Attribute Measured: sensor-assay potency score (higher = more potent)
Answer with a number only.

Entry TTGATGTTCTCCTTGGCACTGG ; sensor-assay potency score (higher = more potent) = -0.145

Entry TGAACCATCTTCCACCAGCTTG ; sensor-assay potency score (higher = more potent) = -1.09

Entry TTGCTGCCTGAGCTGGAGCTGG ; sensor-assay potency score (higher = more potent) = -1.52

Entry TTCACATTGATGTTCTCCTTGG ; sensor-assay potency score (higher = more potent) = -0.53

Entry TTGGAATCCAGAAAGTTCGTGG ; sensor-assay potency score (higher = more potent) = 0.567

Entry TTCTGATCTGCTGCATCCCGTG ; sensor-assay potency score (higher = more potent) = -1.02

Entry TAAGCTAGAAGGCACCACGGAT ; sensor-assay potency score (higher = more potent) = -0.984

----------
molecular target: CENPO; experiment: pooled miR-30 sensor sort-seq; sequence = guide strand; details: shRNA
Attribute Measured: sensor-assay potency score (higher = more potent)
Answer with a number only.

Entry TTATTTTTTGAAACTGAAGGAA ; sensor-assay potency score (higher = more potent) = -0.369

Entry TATTTTTTGAAACTGAAGGAAG ; sensor-assay potency score (higher = more potent) = -1.18

Entry TTGAAACTGAAGGAAGTCCCGA ; sensor-assay potency score (higher = more potent) = 0.077

Entry TAAGCATTCAGGTACTCGCAGA ; sensor-assay potency score (higher = more potent) = -0.982

Entry TTTAGGTTTAGAAACCTCCTCA ; sensor-assay potency score (higher = more potent) = 0.397

Entry TTGCTCATTGATCTCCACTGTT ; sensor-assay potency score (higher = more potent) = -0.258

Entry TTTTGCAGCTATCTCTTCCAGG ; sensor-assay potency score (higher = more potent) = 0.117

Entry TTATACAGCAATCTAGCACAGA ; sensor-assay potency score (higher = more potent) = -0.484

----------
biological target: KRT75; assay: pooled miR-30 sensor sort-seq; sequence = guide strand; settings: shRNA
Could you please report measured sensor-assay potency score (higher = more potent) for the items listed next?
Answer with a number only.

Entry TTAATAGACACATTCCAGGGAG ; sensor-assay potency score (higher = more potent) = 0.363

Entry TTGCAAGCTGGAACACTGCTTC ; sensor-assay potency score (higher = more potent) = 0.132

Entry ATAGGCAGCATCTACGTCCTTT ; sensor-assay potency score (higher = more potent) = -0.0293

Entry TCAACCTGCACTCCTCGCCTTC ; sensor-assay potency score (higher = more potent) = -1.25

Entry TTGACTCCAAACCTGTTGCTGG ; sensor-assay potency score (higher = more potent) = -0.175

Entry TTCCACAACATCCTGCATGTTC ; sensor-assay potency score (higher = more potent) = 0.126

Entry TTCACATGTGTAACAGACGGGT ; sensor-assay potency score (higher = more potent) = -0.549

Entry TTAATTTCATCTTCGTACCTGA ; sensor-assay potency score (higher = more potent) = 0.609

Entry TTTCACATGTGTAACAGACGGG ; sensor-assay potency score (higher = more potent) = 0.696

----------
biological target: EFCAB6; experiment: pooled miR-30 sensor sort-seq; sequence = guide strand; settings: shRNA
Attribute Measured: sensor-assay potency score (higher = more potent)
Answer with a number only.

Entry TTAGACAAGTCTGACCATCTGT ; sensor-assay potency score (higher = more potent) = 0.537

Entry TAAATGTTCACTTAACAGCTGA ; sensor-assay potency score (higher = more potent) = -0.275

Entry TTCTTAGACAAGTCTGACCATC ; sensor-assay potency score (higher = more potent) = -0.457

Entry TTTCATAACAGTCTTAATGTTT ; sensor-assay potency score (higher = more potent) = -0.893

Entry TAAGAGAACATCCACATTCTTC ; sensor-assay potency score (higher = more potent) = -0.398

Entry TATATCGAAATTCTTCTCTTGT ; sensor-assay potency score (higher = more potent) = 0.825

Entry TTGAATATACTCTACACGGTGA ; sensor-assay potency score (higher = more potent) = 0.203

----------
biological target: RBMX; assay: pooled miR-30 sensor sort-seq; sequence = guide strand; details: shRNA
Attribute Measured: sensor-assay potency score (higher = more potent)

Entry TATCGCTATATCCTCTTGATGG ; sensor-assay potency score (higher = more potent) = -1

Entry TCCACTGCTACTGCGAACTGGT ; sensor-assay potency score (higher = more potent) = -0.729

Entry TTTCTTGTCTGCCAACCCGATC ; sensor-assay potency score (higher = more potent) = -1.65

Entry TATCCGTCACGTGAGCTGCTGT ; sensor-assay potency score (higher = more potent) = -0.783

Entry TAGTATCACGAGAACTTGGGTA ; sensor-assay potency score (higher = more potent) = -0.18

Entry TACCACTTTCAAATGATGGTTT ; sensor-assay potency score (higher = more potent) = -0.141

Entry TCTCTATCGCTATATCCTCTTG ; sensor-assay potency score (higher = more potent) = -1.36

Entry TCTATCGCTATATCCTCTTGAT ; sensor-assay potency score (higher = more potent) = -0.479

Entry TCGACTTCCACCATATCCGTCA ; sensor-assay potency score (higher = more potent) = -0.253

----------
target: PPCS; test: pooled miR-30 sensor sort-seq; sequence = guide strand; details: shRNA
Could you please report measured sensor-assay potency score (higher = more potent) for the items listed next?

Entry TTATCCACTATCTTCTCTTCTA ; sensor-assay potency score (higher = more potent) = -0.111

Entry TTCATTGTTATCTGCAGTGGGC ; sensor-assay potency score (higher = more potent) = -0.306

Entry TTTTTTTGTAGTTTTCACCATC ; sensor-assay potency score (higher = more potent) = -0.312

Entry TAAACACAAAGGACTGTCGTGA ; sensor-assay potency score (higher = more potent) = 0.415

Entry TCTGATAGCAATAACTTGGTTT ; sensor-assay potency score (higher = more potent) = 0.221

Entry TTTGGCACCATCTTCATTGTTA ; sensor-assay potency score (higher = more potent) = 0.148

Entry TAAATTTCCAAAGCCTTCCGAG ; sensor-assay potency score (higher = more potent) = -0.661

Entry TTGTAGTTTTCACCATCTCTAA ; sensor-assay potency score (higher = more potent) = -1.34

Entry TTGATGCTGATAAATTTCCAAA ; sensor-assay potency score (higher = more potent) = -1.35

Entry TACAATAAACACAAAGGACTGT ; sensor-assay potency score (higher = more potent) = 0.367

----------
target: NAGPA; assay: pooled miR-30 sensor sort-seq; sequence = guide strand; details: shRNA
Attribute Measured: sensor-assay potency score (higher = more potent)

The reported NAGPA sensor-assay potency score (higher = more potent) of TCTCGTCACACTCTGTGGCTTG is 0.00905

The reported NAGPA sensor-assay potency score (higher = more potent) of AAGCCGAATAGTGCAAGCCGGA is -1.15

The reported NAGPA sensor-assay potency score (higher = more potent) of TAGGGCAGTAGCAAGTCGTCGT is 0.274

The reported NAGPA sensor-assay potency score (higher = more potent) of TTCATGCGGAAGAAGCCGCCGT is -0.589

The reported NAGPA sensor-assay potency score (higher = more potent) of TTTCAGCAGGAACTCCGCCATT is -1.66

The reported NAGPA sensor-assay potency score (higher = more potent) of TTCCTCTCTGCTCTGGACAGGA is -0.227
